Test system: M14 melanoma
PROTOCOL SUMMARY: NCI tumour cell line growth inhibition, 48 h
Starred links: 1 amine or outer side, 2 acyl side, 3 side chain; linkers in the order of their positions; H or OH if unused. Positions of bridges follow the written chain, without caps; N, C: chain ends. Non-standard residues stand in square brackets, D forms with d. Residues, ends and D or L forms follow the SMILES beside them. Chains are numbered I, II in the order given. Actinocin(1to9) = Cc1c2oc3c(C)ccc(C(=O)[*:2])c3nc-2c(C(=O)[*:1])c(N)c1=O; NMeV = CN[CH](C(=O)O)C(C)C; Sar = CNCC(=O)O
READOUT NAME: TGI

O=c1[nH]c2nnc(COc3ccc(Cl)cc3Cl)n2nc1Cc1ccccc1 | > 100 µM
OC(c1ccc(F)cc1)C(F)(F)c1nc2ccccc2o1 (stereo not given) | > 100 µM
Oc1ccc(O)c(CNc2ccc(C(O)C(F)(F)F)cc2)c1 (stereo not given) | 35.5 µM
O=C(NC1(c2cc3ccccc3s2)CCCCC1)C1CCC1 | > 100 µM
CC(=O)OCC1OC(n2cc(F)c(=O)[nH]c2=O)C(NC(=O)N(CCCl)N=O)C(OC(C)=O)C1OC(C)=O (stereo not given) | > 100 µM
N#Cc1cccc2c1Nc1ccccc1S2 | > 100 µM
COc1cc(C2Cc3ncccc3-c3[nH]c(=O)c4cccnc4c32)cc(OC)c1OC (stereo not given) | > 100 µM
Cc1cc(S(=O)(=O)Nc2n[nH]c(Nc3ccc(Cl)cc3)n2)c(S)cc1Cl | > 100 µM
Cc1cn([C@@H]2C[C@@H]2CO)c(=O)[nH]c1=O | > 100 µM
CCOC(=O)c1ccc(NC(=O)Nc2nncs2)cc1 | 3.02 µM
COc1cc2oc(=O)ccc2cc1C(=O)CC(C)C | > 100 µM
CC#CC(O)(C(=O)OCCCN(C)C)C1CCCCC1 (stereo not given) | > 100 µM
COC(=O)C(C(=O)C(=O)Nc1c(C)cccc1C)c1cnc2ccccc2n1 (stereo not given) | > 100 µM
O=[N+]([O-])c1cccc2nc3ccccc3c(NCCCn3ccnc3[N+](=O)[O-])c12 | 0.000256 µM
C/C(=C1/N=C(c2cc([N+](=O)[O-])ccc2Cl)N(c2cccc(C)c2)C1=O)c1cc2ccccc2oc1=O | > 100 µM
CCCCCCCCCCCCOC1C(CNC(=O)C2OC3OC(C)(C)OC3C2NC(=O)Nc2ccc(CC(=O)OC)cc2)OC2OC(C)(C)OC21 (stereo not given) | > 100 µM
COc1ccc(C2=C(Cl)c3cc(OC)c(OC)cc3C2OC)cc1OC (stereo not given) | > 100 µM
Nc1ncnc2c1sc1nc3ccccc3n12 | > 100 µM
OCCN1CCN(CCCN2c3ccccc3Sc3ccc(Cl)cc32)CC1 | 3.6 µM
CC(Nc1ncc2c(n1)-c1ccccc1OC2)C(=O)O (stereo not given) | > 100 µM
N.N.N.N.N.[Co+3].[I-].[N-]=[N+]=[N-] | > 100 µM
CC[C@H](C)[C@H]1NC(=O)[C@@H](NC(=O)[C@@H](CC(C)C)N(C)C(=O)C2CCCN2C(=O)[C@H](C)O)[C@@H](C)OC(=O)[C@H](Cc2ccc(OC)cc2)N(C)C(=O)[C@@H]2CCCN2C(=O)[C@H](CCCCNC(=O)OCc2ccccc2)NC(=O)[C@H](C)C(=O)[C@H](C(C)C)OC(=O)C[C@@H]1O (stereo not given in full) | > 25 µM
Cc1ccn2c(=O)cc(CN3CCOCC3)nc2c1 | > 100 µM
CCN1C(=S)N(c2ccccc2)C2NC(=S)N(/N=C/C=C/c3ccccc3OC)C21 (stereo not given) | > 100 µM
O=C(N/C(=C\c1ccc(Cl)cc1)c1nc2ccccc2[nH]1)c1ccccc1 | 34.1 µM
COC(=O)C1CCc2c1c(=O)n1c([nH]c3ccccc31)c2C#N (stereo not given) | > 100 µM
NC1=CN(CCCO)C2=N/C(=C\c3ccccc3)C(=O)N12 | > 100 µM
CC(C)C1=CC(=O)C(C)(C2C(O)CC3(C)C4CC=C5C(CCC(OC6OC(CO)C(O)C(O)C6OC6OC(C)C(O)C(O)C6O)C5(C)C)C4(C)C(=O)CC23C)O1 (stereo not given) | > 100 µM
CCN1C/C(=C\c2cc(OC)c(OC)cc2OC)C(=O)/C(=C/c2cc(OC)c(OC)cc2OC)C1 | 5.37 µM
CC(C)C1C(=O)N(c2c(F)c(F)c(F)c(F)c2F)C(=S)N1CCS(=O)c1ccccc1 (stereo not given) | 30.6 µM
COc1ccc(N=N/C(=N/NC(=O)c2ccc(C)cc2)c2ccc(N(CCC#N)CCC#N)cc2OC)cc1 | > 100 µM
Cc1cc(NCCCCCCCCNc2cc(C)nc3cc(N)ccc23)c2ccc(N)cc2n1 | 35.6 µM
CC(N)C(Cc1ccc(Cl)cc1)c1ccc(Cl)cc1 (stereo not given) | 18.9 µM
CCC(C)C1NC(=O)C(NC(=O)c2c3nc4c(C(=O)NC5C(=O)NC(C(C)CC)C(=O)N6CCCC6C(=O)N(C)CC(=O)N(C)C(C(C)C)C(=O)OC5C)ccc(C)c4oc-3c(C)c(=O)c2N)C(C)OC(=O)C(C(C)C)N(C)C(=O)CN(C)C(=O)C2CCCN2C1=O (stereo not given) (I: TIP[Sar][NMeV] / II: TIP[Sar][NMeV]; ester I:1-I:C, II:1-II:C; linker I:N-II:N via Actinocin(1to9); configuration not given here) | 0.0272 µM
C=C1CC[C@@H]2[C@](C)(COC(C)=O)[C@H](OC(C)=O)CC[C@@]2(C)[C@@H]1CC(Nc1ccc(S(=O)(=O)NC(C)=O)cc1)C1=CCOC1=O (stereo not given in full) | 11.9 µM

---

Property: TGI; scope: individual compounds
Test system: DU-145 prostate
PROTOCOL SUMMARY: NCI tumour cell line growth inhibition, 48 h
READOUT NAME: TGI

CC1(C)O[C@@H]([C@H](O)CO)[C@H](O)[C@@H](C2SCCCS2)O1 | > 100 µM
C/C(=N\NC(=S)N1CCCCC1)c1ccccn1 | 5.67 µM
O=c1oc2ccccc2nc1/C=C(\O)c1ccc(Cl)cc1 | > 100 µM
O=C1CSC(/C=C/c2ccccc2)N1c1nc2cc3sc(N4C(=O)CSC4/C=C/c4ccccc4)nc3cc2s1 (stereo unspecified) | > 100 µM
COc1ccc(N=Nc2c(C)c(C#N)c(=S)n(C3OC(CO)C(O)C(O)C3O)c2-c2ccccc2)cc1 (stereo unspecified) | > 100 µM
COC[C@@H](N=C1NC(=O)/C(=C/c2ccc3ncccc3c2)S1)c1ccccc1 | > 25 µM
CC(N)C(Cc1ccc(Cl)cc1)c1ccc(Cl)cc1 (stereo unspecified) | 25.7 µM
Cc1ccn2c(=O)cc(CN3CCOCC3)nc2c1 | > 100 µM
COc1cc2c(cc1OC)[C@@H](Nc1ccc(C#N)cc1)C1COC(=O)[C@@H]1C2c1cc(OC)c(O)c(OC)c1 (stereo partly specified) | > 100 µM
OC(c1ccccc1)(c1ccccc1)c1nccc2ccccc12 | > 100 µM
O=c1cc(N=Nc2ccc(Br)cc2)[nH]c(=S)[nH]1 | > 100 µM
CC(C)(O)/C=C\P(=O)(O)O | > 100 µM
CCN(CC)c1ccc(/C=N/NC(=O)CSc2nc3ccccc3c(=O)n2CCc2ccc(S(N)(=O)=O)cc2)c(O)c1 | > 100 µM
CCOC(=O)c1c[nH]c2c(Sc3ccccc3)nccc2c1=O | > 100 µM
O=c1[nH]c2ccccc2c2ccccc12 | > 100 µM
O=C(Oc1cccc2cccnc12)c1cc2c(cc1Cl)SC(N(c1ccc(F)cc1)S(=O)(=O)c1ccc(Br)s1)=NS2(=O)=O | > 100 µM
COc1ccc(N=N/C(=N/NC(=O)c2ccc(C)cc2)c2ccc(N(CCC#N)CCC#N)cc2OC)cc1 | > 100 µM
S=c1[nH]nc(CNc2ccc(-c3n[nH]c(=S)n3-c3ccc(Cl)cc3)cc2)n1-c1ccc(Cl)cc1 | 71.1 µM
COC(=O)C1CCC(=O)N1CN(C(C)=O)c1ccccc1Cl (stereo unspecified) | > 100 µM
CS(=O)(=O)Nc1cncc(-c2ccc3ncnc(Nc4ccc(F)c(Cl)c4)c3c2)c1 | 15.2 µM
CC(C)(Br)C(=O)N1CCN(C(c2ccccc2)c2ccccc2)CC1 | > 100 µM
O=P12N(CCN1c1ccccc1)CCN2c1ccccc1 | > 100 µM
O=S(=O)(NCCCNc1nccc(-c2c(-c3ccc(O)cc3)nc3sccn23)n1)c1ccc(F)cc1 | 9.56 µM
CC(=O)Nc1ccc2c(c1)C(c1ccccc1Cl)=Nc1c(n[nH]c1C)N2 | > 25 µM
CCN(CCCN(C)C)Cc1cc(I)cc(C)c1O | > 100 µM
Cc1ccc(S(=O)(=O)NC(=O)NCCc2cnc[nH]2)cc1 | > 100 µM
O=C1NC(N2CCOCC2)=N/C1=C\c1ccc(Cl)cc1 | > 100 µM
CCCNC(=S)/N=C/c1c(O)cc(C)oc1=O | > 100 µM
O=c1ccn(CC2(CO)CCC2)c(=O)[nH]1 | > 100 µM
COCC1CCCN1c1ccc(C=N/C(C#N)=C(\N)C#N)cc1 (stereo unspecified) | > 100 µM
COc1cc(/C=C\c2cc(OC)c(OC)c(OC)c2)cc(N/C=C\C(=O)c2ccc(OC(F)(F)F)cc2)c1OC | > 100 µM
CC(=O)c1ccc2c(c1)c1cc(C(C)=O)ccc1n2CCNC(C)C | 5.42 µM
C=CCN(c1cc(OCc2ccccc2)c2[nH]cc(C)c2c1)S(C)(=O)=O | > 100 µM
N#CC(C(=O)c1cccnc1Cl)c1nc2cc(C(F)(F)F)ccc2s1 (stereo unspecified) | > 100 µM
COc1ccccc1NC(=S)NN=C(C)c1cccc(C(C)=NNC(=S)Nc2ccccc2OC)n1 | > 100 µM
COc1cc2oc(=O)ccc2cc1C(=O)CC(C)C | > 100 µM
CCc1n[nH]c(=O)n1/N=C/c1ccccc1O | > 100 µM
O=C(O)c1ccc(C(=O)c2ccccc2C(=O)O)cc1C(=O)O | > 100 µM
Fc1cccc(COc2ccc(Nc3ncnc4sc(-c5cccs5)cc34)cc2Cl)c1 | > 17.7 µM
CC(Nc1ncc2c(n1)-c1ccccc1OC2)C(=O)O (stereo unspecified) | > 100 µM
COC(=O)C(N)CCCC(N)C(=O)NC(C)C(=O)NC(CCC(=O)NCCNCCNc1c2ccccc2nc2cccc([N+](=O)[O-])c12)C(N)=O (stereo unspecified) | > 66.1 µM
